- assayed_system: human NaV 1.7 (Homo sapiens)
- Sequence (Q15858 whole entry): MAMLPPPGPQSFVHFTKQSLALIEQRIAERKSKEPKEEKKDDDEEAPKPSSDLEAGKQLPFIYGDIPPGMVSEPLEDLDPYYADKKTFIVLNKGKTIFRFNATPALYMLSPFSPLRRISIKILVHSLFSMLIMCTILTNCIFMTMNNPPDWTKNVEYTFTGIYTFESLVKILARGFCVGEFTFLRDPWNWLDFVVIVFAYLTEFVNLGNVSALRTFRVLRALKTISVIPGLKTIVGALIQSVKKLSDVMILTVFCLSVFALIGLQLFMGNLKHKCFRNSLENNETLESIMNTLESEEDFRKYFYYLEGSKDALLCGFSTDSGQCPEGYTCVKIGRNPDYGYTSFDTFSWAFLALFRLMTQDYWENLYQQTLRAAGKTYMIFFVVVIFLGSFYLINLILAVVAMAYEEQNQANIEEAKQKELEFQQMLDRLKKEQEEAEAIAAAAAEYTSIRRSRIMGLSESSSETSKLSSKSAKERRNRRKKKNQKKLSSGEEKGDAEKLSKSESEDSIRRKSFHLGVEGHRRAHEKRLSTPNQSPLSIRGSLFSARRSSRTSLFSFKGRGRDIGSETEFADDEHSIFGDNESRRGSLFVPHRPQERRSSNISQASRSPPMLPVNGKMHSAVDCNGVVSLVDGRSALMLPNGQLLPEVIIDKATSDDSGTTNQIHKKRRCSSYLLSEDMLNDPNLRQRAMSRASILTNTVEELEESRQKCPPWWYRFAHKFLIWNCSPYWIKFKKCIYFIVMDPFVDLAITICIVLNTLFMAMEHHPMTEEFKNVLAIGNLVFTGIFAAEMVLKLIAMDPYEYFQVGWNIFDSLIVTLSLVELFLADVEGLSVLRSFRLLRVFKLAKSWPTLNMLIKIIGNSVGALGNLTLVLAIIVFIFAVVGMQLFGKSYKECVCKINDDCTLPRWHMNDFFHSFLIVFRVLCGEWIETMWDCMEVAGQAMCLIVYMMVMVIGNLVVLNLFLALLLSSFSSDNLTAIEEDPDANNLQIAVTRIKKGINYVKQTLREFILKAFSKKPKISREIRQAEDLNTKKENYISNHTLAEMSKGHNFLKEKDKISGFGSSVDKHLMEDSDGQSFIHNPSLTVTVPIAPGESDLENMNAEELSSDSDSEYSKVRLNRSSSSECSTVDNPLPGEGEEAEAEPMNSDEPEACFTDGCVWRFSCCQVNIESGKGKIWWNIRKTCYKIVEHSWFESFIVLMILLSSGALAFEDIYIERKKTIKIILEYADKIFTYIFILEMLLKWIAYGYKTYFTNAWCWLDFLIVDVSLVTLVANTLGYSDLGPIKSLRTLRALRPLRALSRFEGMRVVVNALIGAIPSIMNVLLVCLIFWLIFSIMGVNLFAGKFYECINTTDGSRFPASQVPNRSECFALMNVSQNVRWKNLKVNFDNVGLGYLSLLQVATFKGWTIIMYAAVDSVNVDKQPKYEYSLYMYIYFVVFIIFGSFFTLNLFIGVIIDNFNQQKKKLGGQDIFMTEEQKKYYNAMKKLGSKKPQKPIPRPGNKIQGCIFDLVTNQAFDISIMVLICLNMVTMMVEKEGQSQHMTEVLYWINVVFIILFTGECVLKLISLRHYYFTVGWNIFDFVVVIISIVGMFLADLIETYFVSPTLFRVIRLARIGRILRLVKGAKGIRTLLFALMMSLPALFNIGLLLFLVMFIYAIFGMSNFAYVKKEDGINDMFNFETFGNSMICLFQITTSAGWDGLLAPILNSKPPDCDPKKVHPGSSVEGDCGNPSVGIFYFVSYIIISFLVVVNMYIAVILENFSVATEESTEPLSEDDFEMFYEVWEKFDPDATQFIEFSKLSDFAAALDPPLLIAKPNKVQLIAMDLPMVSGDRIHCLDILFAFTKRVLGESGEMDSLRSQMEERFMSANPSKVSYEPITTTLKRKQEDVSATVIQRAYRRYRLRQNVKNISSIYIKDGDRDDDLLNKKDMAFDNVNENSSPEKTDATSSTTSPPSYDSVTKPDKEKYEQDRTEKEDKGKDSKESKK
- protocol_summary: E-VIPR optical membrane potential assay with electrical stimulation
- test_context: sodium channel inhibition; read-out: Binned Activity Data (IC50)
experimental_endpoint: IC50

Completed entries (count: 10):
COc1cc(OC)c(C(=O)N2CCC3(CC2)Oc2cc(Cl)ccc2-n2cccc23)cc1CO [Compound 576] : ≤ 2000 nM
COc1ccc(C(=O)N2CCC3(CC2)Oc2ccccc2-n2c(C(F)(F)F)ccc23)c(F)c1 [Compound 875] : 2000 to 5000 nM
CC(C)(O)c1ccc(C(=O)N2CCC3(CC2)Oc2ccccc2-n2c(C(F)(F)F)ccc23)cn1 [Compound 455] : > 5000 nM
COc1ccc(F)c(F)c1C(=O)N1CCC2(CC1)Oc1ccccc1-c1c2cnn1C [Compound 353] : > 5000 nM
Cn1ncc2c1-c1ccccc1OC21CCN(C(=O)c2ccc(S(=O)(=O)C(F)F)cc2)CC1 [Compound 626] : ≤ 2000 nM
COc1cc(C(=O)N2CCC3(CC2)Oc2cc(F)ccc2-n2cccc23)ccc1OC[C@H]1COC(C)(C)O1 [Compound 228] : ≤ 2000 nM
COc1ccc(C(=O)N2CCC3(CC2)Oc2ccccc2-c2nn(C)cc23)c(OC)c1OC [Compound 646] : ≤ 2000 nM
Cn1ncc2c1-c1ccc(F)cc1OC21CCN(C(=O)c2ccccc2OC(F)(F)F)CC1 [Compound 468] : ≤ 2000 nM
COc1cc(S(C)(=O)=O)ccc1C(=O)N1CCC2(CC1)Oc1ccccc1-c1c2cnn1C [Compound 93] : 2000 to 5000 nM
COc1cc(OC(C)(C)C)ccc1C(=O)N1CCC2(CC1)Oc1ccccc1-c1c2cnn1C [Compound 94] : ≤ 2000 nM

Input: Checklist item: IC50 tested on human NaV 1.7 (Homo sapiens), entry COc1cc(C(=O)N2CCC3(CC2)Oc2cc(F)ccc2-c2c3cnn2C)ccc1OC(C)C [Compound 617] , value?
Output: ≤ 2000 nM

Input: Checklist item: IC50 tested on human NaV 1.7 (Homo sapiens), entry COc1ccc(F)cc1C(=O)N1CCC2(CC1)Oc1ccccc1-c1c2cnn1C [Compound 476] , value?
Output: ≤ 2000 nM

Input: Checklist item: IC50 tested on human NaV 1.7 (Homo sapiens), entry CCCOc1ccc(C(=O)N2CCC3(CC2)Oc2ccccc2-n2c(C)ccc23)cc1C(F)(F)F [Compound 818] , value?
Output: ≤ 2000 nM

* * *

- assayed_system: human NaV 1.7 (Homo sapiens)
- protocol_summary: E-VIPR optical membrane potential assay with electrical stimulation
- test_context: sodium channel inhibition; read-out: Binned Activity Data (IC50)
pIC50: −log10 of the molar value.
experimental_endpoint: pIC50

COc1cc(C(=O)N2CCC3(CC2)Oc2ccccc2-n2c(C#N)ccc23)ccc1O : ≥ 5.70

Input: Given the compound Cn1ncc2c1-c1ccccc1OC21CCN(C(=O)c2cccc3c2OC(C)(C)C3)CC1 , what is its reported pIC50?
Output: ≥ 5.70

Input: Given the compound COc1ccc(C)cc1C(=O)N1CCC2(CC1)Oc1ccccc1-c1c2cnn1C , what is its reported pIC50?
Output: < 5.30

Input: Given the compound CNS(=O)(=O)c1ccc(C(=O)N2CCC3(CC2)Oc2ccccc2-c2c3cnn2C)cc1 , what is its reported pIC50?
Output: ≥ 5.70

Input: Given the compound CC(C)Oc1ccc(C(=O)N2CCC3(CC2)Oc2ccccc2-c2c3cnn2C)cc1 , what is its reported pIC50?
Output: ≥ 5.70

Input: Given the compound Cc1nc2ccc(C(=O)N3CCC4(CC3)Oc3ccccc3-c3nn(C)cc34)cc2s1 , what is its reported pIC50?
Output: ≥ 5.70

Input: Given the compound COc1cc(C(=O)N2CCC3(CC2)Oc2ccccc2-c2c3cnn2C)ccc1OC(F)F , what is its reported pIC50?
Output: 5.30 to 5.70

Input: Given the compound Cn1ncc2c1-c1ccccc1OC21CCN(C(=O)c2cccnc2Oc2ccc(F)cc2)CC1 , what is its reported pIC50?
Output: ≥ 5.70

Data credit: patent US9365588B2
